Target: mutant MGL (Homo sapiens, UniProt Q99685, L169S/L176S)
Sequence (Q99685 whole entry L169S/L176S): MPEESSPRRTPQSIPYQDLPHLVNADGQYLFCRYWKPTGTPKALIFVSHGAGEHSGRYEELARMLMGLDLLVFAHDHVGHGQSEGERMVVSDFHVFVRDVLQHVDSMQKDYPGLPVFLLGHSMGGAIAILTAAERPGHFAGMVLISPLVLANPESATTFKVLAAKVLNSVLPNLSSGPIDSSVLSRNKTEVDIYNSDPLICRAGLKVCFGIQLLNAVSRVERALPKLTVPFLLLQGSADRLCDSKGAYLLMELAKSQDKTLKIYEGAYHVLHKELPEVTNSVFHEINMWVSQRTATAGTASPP
Test: MGL ThermoFluor assay - mutant
Assay type: binding
Conditions: ThermoFluor concentration-response, read-out: MGL mutant ThermoFluor Kd
Kindly supply the reported Kd values for the records listed here.

1. CC(C)(C)OC(=O)N1CCC(c2ccccc2C(=O)N2CC(N3CCN(C(=O)c4ccccc4)CC3)C2)C1 (stereo not drawn) [Cpd 111] : 10000 nM
2. O=C(c1ccc2c(c1)[nH]c(=O)n2CCC(F)(F)F)N1CC(N2CCN(C(=O)c3cscn3)CC2)C1 [Cpd 944] : 802 nM
3. O=C(/C=C/c1ccccc1Cl)N1CC(N2CCN(C(=O)c3ccccc3)CC2)C1 [Cpd 103] : 6250 nM
4. CC(C)(C)OC(=O)Nc1ccc(C(=O)N2CC(N3CCN(C(=O)c4ccccc4)CC3)C2)cc1 [Cpd 496] : 287 nM
5. COc1cc(C(=O)N2CC(N3CCN(C(=O)c4ccccc4)CC3)C2)ccc1-c1ccccc1 [Cpd 615] : 97 nM

For the 4 compounds below, give their Kd values.
1. Cc1nc2cc(C(=O)N3CCN(C4CN(C(=O)c5nccs5)C4)CC3)ccc2n1C1CCCCC1 [Cpd 793]
2. O=C(c1ccccc1)N1CCN(C2CN(C(=O)c3ccc4[nH]c5c(c4c3)CCCC5)C2)CC1 [Cpd 55]
3. O=C(c1ccc2[nH]c(-c3ccccc3)nc2c1)N1CCN(C2CN(C(=O)c3ccccc3)C2)CC1 [Cpd 611]
4. O=C(c1ccccc1)N1CCN(C2CN(C(=O)c3ccc(SCc4cccc(Cl)c4Cl)cc3)C2)CC1 [Cpd 411]

1. 198 nM
2. 25000 nM
3. 5150 nM
4. 33.3 nM

* * *

Kindly supply the reported Kd values for the records listed here.
Biological target: mutant MGL (Homo sapiens, UniProt Q99685, L169S/L176S)
Assay: MGL ThermoFluor assay - mutant
Assay type: binding
Settings: compound concentration measured by qNMR, read-out: MGL mutant ThermoFluor qKd (using qNMR conc.)
Numbers only, in nM.

1) Cc1c(C(=O)N2CC(N3CCN(C(=O)c4ccc[nH]4)CC3)C2)sc2cc(C(F)(F)F)ccc12 [Cpd 657] : 2
2) O=C(c1ccc2nn(Cc3cccc(C(F)(F)F)c3)cc2c1)N1CC(N2CCN(C(=O)c3nccs3)CC2)C1 [Cpd 1039] : 7
3) O=C(c1ccc2c(cnn2Cc2ccc(C(F)(F)F)cc2)c1)N1CC(N2CCN(C(=O)c3nccs3)CC2)C1 [Cpd 1036] : 5
4) CN(C(=O)Cn1ccc2cc(C(=O)N3CC(N4CCN(C(=O)c5nccs5)CC4)C3)ccc21)c1ccccc1 [Cpd 1031] : 134
5) Cc1cc(C(=O)N2CC(N3CCN(C(=O)c4nccs4)CC3)C2)cc2ccn(-c3ccc(F)cc3)c12 [Cpd 1355] : 2
6) O=C(c1ccc2c(-c3cccc(F)c3)c[nH]c2c1)N1CC(N2CCN(C(=O)c3nccs3)CC2)C1 [Cpd 1319] : 1
7) O=C(c1nccs1)N1CCN(C2CN(C(=O)c3ccc4c(ccn4-c4ccc(F)cc4)c3F)C2)CC1 [Cpd 1348] : 2
8) C/C(=C\c1ccc(Cl)cc1)c1c(C)c(C(=O)N2CC(N3CCN(C(=O)C(F)(F)F)CC3)C2)nn1-c1ccc(Cl)cc1Cl [Cpd 1012] : 3340
9) O=C(c1ccc(OCc2cncc(Cl)c2)cc1)N1CC(N2CCN(C(=O)C(F)(F)F)CC2)C1 [Cpd 979] : 1140
10) Cc1nc2cc(C(=O)N3CC(N4CCN(C(=O)c5cscn5)CC4)C3)ccc2n1-c1ccc(F)cc1 [Cpd 1291] : 179

Look up Kd: O=C(c1ccc2cn(Cc3ccc(F)cc3)nc2c1)N1CC(N2CCN(C(=O)c3nccs3)CC2)C1 [Cpd 1052]
65

* * *

Target: mutant MGL (Homo sapiens, UniProt Q99685, L169S/L176S)
Assay: MGL ThermoFluor assay - mutant
Assay type: binding
Conditions: ThermoFluor concentration-response, read-out: MGL mutant ThermoFluor Kd
pKd: −log10 of the molar value.
Output MET for pKd not less than 7; output NOT MET otherwise.

See these solved cases before continuing.
1. Cc1c(C(=O)N2CCN(C3CN(C(=O)c4nc(C(F)(F)F)cs4)C3)CC2)sc2cc(C(F)(F)F)ccc12 : NOT MET
2. O=C(c1ccccc1)N1CCN(C2CN(C(=O)c3ccc(NCc4ccc(Cl)c(Cl)c4)cc3)C2)CC1 : MET
3. Cc1cc(-c2cccc(C(F)(F)F)c2)ccc1C(=O)N1CCN(C2CN(C(=O)c3nccs3)C2)CC1 : NOT MET
4. O=C(c1nccs1)N1CCN(C2CN(C(=O)c3ccc(-c4ccccc4)cc3Cl)C2)CC1 : MET
5. O=C(c1ccc(-c2cccc(Cl)c2)cc1)N1CC(N2CCN(C(=O)c3nccs3)CC2)C1 : MET

Reported pKd at or above 7? O=C(c1ccc2c(-c3cccc(C(F)(F)F)c3)c[nH]c2c1)N1CC(N2CCN(C(=O)c3nccs3)CC2)C1
MET

Repeat with CC(C)n1c(C(F)(F)F)nc2cc(C(=O)N3CC(N4CCN(C(=O)c5cscn5)CC4)C3)ccc21
NOT MET

Repeat with Cc1nc(C(=O)N2CCN(C3CN(C(=O)c4ccc(-c5ccccc5)cc4)C3)CC2)cs1
NOT MET

Repeat with O=C(c1nccs1)N1CCN(C2CN(C(=O)[C@@H]3C[C@H]3c3ccccc3Cl)C2)CC1 (racemic)
NOT MET

Repeat with O=C(c1nccs1)N1CCN(C2CN(C(=O)c3cc(Br)ccc3F)C2)CC1
NOT MET

* * *

Target: MGL (Rattus norvegicus)
Construct: one g rat brain was homogenized using a Polytron homogenizer; from tissue; host or cells: rat brain homogenate
Sequence (Q8R431 whole entry): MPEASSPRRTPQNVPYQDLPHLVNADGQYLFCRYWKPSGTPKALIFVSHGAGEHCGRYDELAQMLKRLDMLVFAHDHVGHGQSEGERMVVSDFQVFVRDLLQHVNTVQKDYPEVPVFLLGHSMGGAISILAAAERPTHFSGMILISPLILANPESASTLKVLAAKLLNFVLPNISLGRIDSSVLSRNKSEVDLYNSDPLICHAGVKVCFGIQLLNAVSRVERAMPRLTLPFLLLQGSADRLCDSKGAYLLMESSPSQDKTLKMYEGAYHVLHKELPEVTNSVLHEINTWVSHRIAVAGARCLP
Assay: 2-AG accumulation assay in rat brain homogenate
Assay type: biochemical
Conditions: rat brain homogenate; compound 1 μM; 2-AG accumulation as percent of vehicle; read-out: Rat Brain 2AG % VehCntrl (%) @ 1 μM
Kindly supply the reported 2-AG accumulation, % of vehicle control at 1 µM values for the records listed here.
Answers are plain numbers, in %.

Previously resolved entries follow.
1) O=C(c1nccs1)N1CCN(C2CN(C(=O)c3cc4ccn(-c5ccc(F)cc5)c4cc3F)C2)CC1 : 846
2) O=C(c1ccc2c(-c3ccccc3)c[nH]c2c1)N1CC(N2CCN(C(=O)c3nccs3)CC2)C1 : 602
3) O=C(c1ccc(-c2ccccc2)c(F)c1)N1CC(N2CCN(C(=O)c3cscn3)CC2)C1 : 205
4) O=C(c1nccs1)N1CCN(C2CN(C(=O)c3ccc(-c4ccccc4)cc3Cl)C2)CC1 : 297
5) O=C(c1ccc2c(ccn2-c2ncccn2)c1)N1CC(N2CCN(C(=O)c3cscn3)CC2)C1 : 475

Next:
Kindly state the measured 2-AG accumulation, % of vehicle control at 1 µM obtained for O=C(c1cscn1)N1CC(N2CCN(C(=O)c3cc4cc(C(F)(F)F)ccc4s3)C(c3ccccc3)C2)C1 (stereo not drawn) with MGL (Rattus norvegicus).
119

* * *

Kindly supply the reported inhibition in vivo at 30 mg/kg values for the records listed here.
Tested on: CFA-induced paw radiant heat hypersensitivity
Test: CFA-induced paw radiant heat hypersensitivity
Type: in vivo, rat
Conditions: Rattus norvegicus, po; 30 mg/kg p.o., HPβCD, group mean values, last time point 180 or 300 min; read-out: CFA thermal hypersensitivity Method 1: peak % reversal
Include the unit after the number when you answer.

Previously resolved entries follow.
1) O=C(c1ccccc1)N1CCN(C2CN(C(=O)c3sc4cc(Br)ccc4c3Cl)C2)CC1 : 14.3%
2) Cc1cc(-c2ccccc2)ccc1C(=O)N1CC(N2CCN(C(=O)c3cscn3)CC2)C1 : 78%
3) O=C(c1nccs1)N1CCN(C2CN(C(=O)c3sc4cc(C(F)(F)F)ccc4c3F)C2)CC1 : 23.4%

For the 3 compounds below, give their inhibition in vivo at 30 mg/kg values.
1. O=C(c1ccccc1)N1CCN(C2CN(C(=O)c3ccc4c(ccn4-c4ccc(C(F)(F)F)cc4)c3)C2)CC1
2. O=C(c1ccccc1)N1CCN(C2CN(C(=O)c3ccc(-c4ccc(Cl)c(C(F)(F)F)c4)cc3)C2)CC1
3. O=C(c1cscn1)N1CCN(C2CN(C(=O)c3cc4ccc(C(F)(F)F)cc4s3)C2)CC1

1. 51%
2. 9.6%
3. 14.3%

* * *

Target: mutant MGL (Homo sapiens, UniProt Q99685, L169S/L176S)
Experiment: MGL ThermoFluor assay - mutant
Type: binding
Settings: ThermoFluor concentration-response, read-out: MGL mutant ThermoFluor Kd
experimental.readout: Kd (nM)
Answers are plain numbers, in nM.

Previously resolved entries follow.
1. O=C(c1ccc(CNc2cccc(Cl)c2)cc1)N1CC(N2CCN(C(=O)c3cscn3)CC2)C1 [Cpd 969] : 69
2. Cc1nc(-c2cccc(C(F)(F)F)c2)sc1C(=O)N1CC(N2CCN(C(=O)c3ccccc3)CC2)C1 [Cpd 618] : 80
3. O=C(c1ccc(-c2cccc(C(F)(F)F)c2)cc1)N1CCN(C2CN(C(=O)c3cc[nH]c3)C2)CC1 [Cpd 1243] : 33
4. O=C(Nc1ccc(C(=O)N2CC(N3CCN(C(=O)c4nccs4)CC3)C2)cc1)C1CCCCC1 [Cpd 709] : 15
5. O=C(c1ccc(-c2ccccc2)cc1)N1CCN(C2CN(C(=O)c3nccs3)C2)CC1 [Cpd 1236] : 31

For the 4 compounds below, give their Kd values.
1. Cc1c(C(=O)N2CC(N3CCN(C(=O)c4nccs4)CC3)C2)cccc1-c1ccccc1 [Cpd 1234]
2. Cc1c(C(=O)N2CC(N3CCN(C(=O)c4cscn4)CC3)C2)sc2cc(C(F)(F)F)ccc12 [Cpd 674]
3. O=C(c1ccc(Cc2cccc(C(F)(F)F)c2)cc1)N1CC(N2CCN(C(=O)c3nccs3)CC2)C1 [Cpd 995]
4. O=C(c1ccc(-n2cnc3ccccc32)cc1)N1CCN(C2CN(C(=O)c3cscn3)C2)CC1 [Cpd 1305]

[394, 3, 2, 833]

Look up Kd: Cn1cccc1C(=O)N1CCN(C2CN(C(=O)c3ccc(-c4ccccc4)cc3)C2)CC1 [Cpd 11]
454
